- Target of assay: T1, Recombinant Human GFRα-1/GDNF Rα-1 Fc Chimera (human, UniProt P56159 25-429)
- T1 construct: Purchased Fc chimera; It was captured on protein A in Biacore and coated on the plate in ELISA; also called GFRα1-Fc; recombinant human GFRα1-Fc chimera, carrier-free; not shown: Fc part of a purchased Fc chimera
- T1 sequence (looked up): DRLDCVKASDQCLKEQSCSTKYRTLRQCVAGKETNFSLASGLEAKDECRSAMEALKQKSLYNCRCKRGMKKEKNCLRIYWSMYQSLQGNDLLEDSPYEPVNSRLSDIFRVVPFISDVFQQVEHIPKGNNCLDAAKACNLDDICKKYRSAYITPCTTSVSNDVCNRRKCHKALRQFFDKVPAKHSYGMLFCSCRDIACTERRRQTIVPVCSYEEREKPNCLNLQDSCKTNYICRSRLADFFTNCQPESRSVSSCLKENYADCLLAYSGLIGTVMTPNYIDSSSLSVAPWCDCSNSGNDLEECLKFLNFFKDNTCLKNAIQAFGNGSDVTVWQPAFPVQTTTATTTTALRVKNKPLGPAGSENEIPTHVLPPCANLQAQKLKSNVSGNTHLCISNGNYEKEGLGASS
- Test name: SPR (Biacore 2000), GFRα1-Fc captured on protein A, GDNFv as analyte, 1:1 Langmuir, 25 C
Measured metric: kon (M⁻¹ s⁻¹)
// return numeric value only (unit: M⁻¹ s⁻¹, not printed)

Sample CHO-Δ31-GDNF (SEQ ID NO: 8) (ligand, N-glycosylated at N49 (numbering of mature GDNF), Expressed in CHO cells; also called CHO-Δ31-GDNFv; WT CHO Δ31-GDNFv) RGQRGKNRGCVLTAIHLNVTDLGLGYETKEELIFRYCSGSCDAAETTYDKILKNLSRNRRLVSDKVGQACCRPIAFDDDLSFLDDNLVYHILRKHSAKRCGCI ; kon observed: 3.8e+06

Sample CHO-Δ31-N38Q-K84A-R88K-R90K-D95E-GDNF (SEQ ID NO: 12) (ligand, N-glycosylated at N49 (numbering of mature GDNF), Expressed in CHO cells; also called Δ31-N38Q-KAKKE; GDNF variant 3) RGQRGKQRGCVLTAIHLNVTDLGLGYETKEELIFRYCSGSCDAAETTYDKILANLSKNKRLVSEKVGQACCRPIAFDDDLSFLDDNLVYHILRKHSAKRCGCI ; kon observed: 6.2e+06

Sample E. Coli-Δ31-N38Q-K84A-R88K-R90K-D95E-GDNF (SEQ ID NO: 12) (ligand, also called Δ31-N38Q-KAKKE; GDNF variant 3) RGQRGKQRGCVLTAIHLNVTDLGLGYETKEELIFRYCSGSCDAAETTYDKILANLSKNKRLVSEKVGQACCRPIAFDDDLSFLDDNLVYHILRKHSAKRCGCI ; kon observed: 5e+06

Sample E. coli-Δ31-N38Q-D95E-GDNF (SEQ ID NO: 9) (ligand, also called GDNF variant 2; clone D9) RGQRGKQRGCVLTAIHLNVTDLGLGYETKEELIFRYCSGSCDAAETTYDKILKNLSRNRRLVSEKVGQACCRPIAFDDDLSFLDDNLVYHILRKHSAKRCGCI ; kon observed: 3.9e+06

Sample CHO-Δ31-N38Q-D95E-GDNF (SEQ ID NO: 9) (ligand, N-glycosylated at N49 (numbering of mature GDNF), Expressed in CHO cells; also called CHO-Δ31-N38Q-D95E-GDNFv; GDNF variant 2) RGQRGKQRGCVLTAIHLNVTDLGLGYETKEELIFRYCSGSCDAAETTYDKILKNLSRNRRLVSEKVGQACCRPIAFDDDLSFLDDNLVYHILRKHSAKRCGCI ; kon observed: 4.5e+06

Sample E. Coli-Δ31-GDNF (SEQ ID NO: 8) (ligand, The NdeI start codon encodes a Met before R32; also called Delta-31 GDNF; Variant 1) RGQRGKNRGCVLTAIHLNVTDLGLGYETKEELIFRYCSGSCDAAETTYDKILKNLSRNRRLVSDKVGQACCRPIAFDDDLSFLDDNLVYHILRKHSAKRCGCI ; kon observed: 4.2e+06
